- System: Nuclear hormone receptor DAF-12 (Heterodera glycines), GAL4 fusion
- protocol_summary: H. glycines DAF-12 receptor agonists, primary screen, cell-based, luminescence, HEK293, GAL4 fusion, UAS-luciferase (AID 687014);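 further: 0% = DMSO wells and 100% = sodium butyrate wells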
- details: HEK293 GAL4-hgDAF12 UAS-luciferase reporter, agonist luminescence; at 6.8 µM; active compounds read high; normalized to butyrate control
The campaign covered roughly 370,000 compounds. About 6,800 (1.8%) were called active. What follows is part of a selection rich in actives, with near analogues and random picks from the rest.
measured_attribute: activation (%)
Respond numerically; units are % and should not be typed.

Ask: Record request: activation value, item `Cn1c(=NC(=O)C2CC2)sc2cc(F)cc(F)c21`
Reply: 14

Continuing:
Ask: Record request: activation value, item `COc1cccc(CNC(=O)CNS(=O)(=O)c2ccc3nc(C)sc3c2)c1OC`
Reply: -1.09

Ask: Record request: activation value, item CCOc1ccc(NC(=O)c2ccc(NC(=O)C3CCCO3)cc2)cc1 (stereo not given)
Reply: -1.61

Ask: Record request: activation value, item `Cc1noc(C)c1NC(=O)Nc1ccc2c(c1)C(=O)N([C@H](C)CO)C[C@H](C)[C@H](CN(C)Cc1ccncc1)OCCCC[C@@H](C)O2`
Reply: 2.01

Ask: Record request: activation value, item `Cc1csc2nc(COC(=O)c3cccc(N(C)C)c3)cc(=O)n12`
Reply: 1.98
